Below, each entry is listed alongside its reported Solubility.
assay: Solubility test in water and FaSSIF; type: physicochemical; conditions: FaSSIF (pH 6.5), 37° C., up to 24 hours
assay-readout: Solubility

molecule	assay-readout	result
C[C@@H](N)C(=O)N[C@H](C)C(=O)O[C@H]1C[C@@H]2[C@]3(CC[C@]4(C)[C@@H]([C@]5(C)CC[C@@H](C(C)(C)O)O5)[C@@H](O)C[C@@]24C)C[C@@]32CCC(F)(F)C(C)(C)[C@H]12.I	Solubility	3.14 mg/mL
CC(O)C(N)C(=O)OC1CC2C3(C)CC(O)C(C4(C)CCC(C(C)(C)O)O4)C3(C)CCC23CC32CCC(F)(F)C(C)(C)C12.Cl (centres unmarked)	Solubility	2.8 mg/mL
Br.CC(C)(O)C1CCC(C)(C2C(O)CC3(C)C4CC(OC(=O)CN)C5C(C)(C)C(F)(F)CCC56CC46CCC23C)O1 (centres unmarked)	Solubility	5.3 mg/mL
Br.CC(C)(O)C1CCC(C)(C2C(O)CC3(C)C4CC(OC(=O)COCCOCCOCCOCCOCCN)C5C(C)(C)C(F)(F)CCC56CC46CCC23C)O1 (centres unmarked)	Solubility	4.39 mg/mL
CC(NC(=O)C(N)CC(N)=O)C(=O)OC1CC2C3(C)CC(O)C(C4(C)CCC(C(C)(C)O)O4)C3(C)CCC23CC32CCC(F)(F)C(C)(C)C12.Cl (centres unmarked)	Solubility	3.2 mg/mL

###

test: Plasma pharmacokinetics after single intragastric administration in rats; format: in vivo, SD rat; conditions: female, rat, plasma, po; rats ♀, single gavage 10 mg/kg, Mean ± SD
assay-readout: Tmax (h)

sample-smiles	assay-readout	readout-number
CC(C)(O)[C@@H]1CC[C@](C)([C@H]2[C@@H](O)C[C@@]3(C)[C@@H]4C[C@H](O)[C@H]5C(C)(C)C(F)(F)CC[C@@]56C[C@@]46CC[C@]23C)O1	Tmax	2.33

###

assay: Plasma pharmacokinetics after single intravenous injection in rats; type: in vivo; details: male, rat, rats ♂, intravenous 2 mg/kg, Mean ± SD, read-out: C0.05

compound	concentration at 0.05 h [ng/mL]
CC(C)(O)[C@@H]1CC[C@](C)([C@H]2[C@@H](O)C[C@@]3(C)[C@@H]4C[C@H](O)[C@H]5C(C)(C)C(F)(F)CC[C@@]56C[C@@]46CC[C@]23C)O1 [Compound 2]	1540

###

experiment: Plasma pharmacokinetics after single intravenous injection in rats; type: in vivo; conditions: male, rat, rats ♂, intravenous 2 mg/kg, Mean ± SD

compound	display-unit	AUC(0-inf)
CC(C)(O)[C@@H]1CC[C@](C)([C@H]2[C@@H](O)C[C@@]3(C)[C@@H]4C[C@H](O)[C@H]5C(C)(C)C(F)(F)CC[C@@]56C[C@@]46CC[C@]23C)O1 [Compound 2]	ng·h/mL	1080

###

In this section, each of the molecules is paired with its reported Solubility.
experiment: Solubility test in water and FaSSIF; assay type: physicochemical; conditions: FaSSIF (pH 6.5), 37° C., up to 24 hours

molecule	Solubility [mg/mL]
CC(C)(O)[C@@H]1CC[C@@](C)([C@H]2[C@@H](O)C[C@@]3(C)[C@@H]4C[C@H](OC(=O)[C@@H](N)CS)[C@H]5C(C)(C)C(F)(F)CC[C@@]56C[C@@]46CC[C@]23C)O1.Cl [Compound 2-25]	3.35
CC(C)(O)[C@@H]1CC[C@@](C)([C@H]2[C@@H](O)C[C@@]3(C)[C@@H]4C[C@H](OC(=O)CNC(=O)[C@@H](N)CO)[C@H]5C(C)(C)C(F)(F)CC[C@@]56C[C@@]46CC[C@]23C)O1.Cl [Compound 2-31]	6.25
CC(C)(O)[C@@H]1CC[C@@](C)([C@H]2[C@@H](O)C[C@@]3(C)[C@@H]4C[C@H](OC(=O)[C@@H](N)Cc5c[nH]cn5)[C@H]5C(C)(C)C(F)(F)CC[C@@]56C[C@@]46CC[C@]23C)O1.O=S(=O)(O)O [Compound 2-22]	1.25
CC(C)(O)[C@@H]1CC[C@@](C)([C@H]2[C@@H](O)C[C@@]3(C)[C@@H]4C[C@H](OC(=O)[C@@H](N)CCCCN)[C@H]5C(C)(C)C(F)(F)CC[C@@]56C[C@@]46CC[C@]23C)O1.Cl.Cl [Compound 2-26]	6.6
CC(C)(O)C1CCC(C)(C2C(O)CC3(C)C4CC(OC(=O)CNCCNCCN)C5C(C)(C)C(F)(F)CCC56CC46CCC23C)O1.O=[N+]([O-])O (centres unmarked) [Compound 2-9]	4.52

###

test: Solubility test in water and FaSSIF; assay type: physicochemical; conditions: FaSSIF (pH 6.5), 37° C., up to 24 hours

compound	display-unit	Solubility
CC(C)(O)C1CCC(C)(C2C(O)CC3(C)C4CC(OP(=O)(O)O)C5C(C)(C)C(F)(F)CCC56CC46CCC23C)O1.N (centres unmarked)	µg/mL	22300
CC(C)(O)[C@@H]1CC[C@@](C)([C@H]2[C@@H](O)C[C@@]3(C)[C@@H]4C[C@H](OC(=O)[C@@H](N)CCCNC(=N)N)[C@H]5C(C)(C)C(F)(F)CC[C@@]56C[C@@]46CC[C@]23C)O1.Cl.Cl	µg/mL	6600
CN(CC(=O)OC1CC2C3(C)CC(O)C(C4(C)CCC(C(C)(C)O)O4)C3(C)CCC23CC32CCC(F)(F)C(C)(C)C12)C(=O)C(N)Cc1ccccc1.Cl (centres unmarked)	µg/mL	2850
CC(C)C(N)C(=O)OC1CC2C3(C)CC(O)C(C4(C)CCC(C(C)(C)O)O4)C3(C)CCC23CC32CCC(F)(F)C(C)(C)C12.Cl (mixture of isomers)	µg/mL	3020
CC(N)C(=O)N(C)CC(=O)OC1CC2C3(C)CC(O)C(C4(C)CCC(C(C)(C)O)O4)C3(C)CCC23CC32CCC(F)(F)C(C)(C)C12.Cl (centres unmarked)	µg/mL	3130

###

assay: Plasma pharmacokinetics after single intragastric administration in rats; format: in vivo, SD rat; conditions: male, rat, plasma, po; rats ♂, single gavage 10 mg/kg, Mean ± SD; read-out: AUC0-t

sample-smiles	display-unit	AUC0-t
CC(C)(O)[C@@H]1CC[C@](C)([C@H]2[C@@H](O)C[C@@]3(C)[C@@H]4C[C@H](O)[C@H]5C(C)(C)C(F)(F)CC[C@@]56C[C@@]46CC[C@]23C)O1	ng·h/mL	831

###

test: Plasma pharmacokinetics after single intravenous injection in rats; type: in vivo; conditions: both sexes, rat, all rats (♂ and ♀), intravenous 2 mg/kg, Mean ± SD

compound	AUC(0-inf)
CC(C)(O)[C@@H]1CC[C@](C)([C@H]2[C@@H](O)C[C@@]3(C)[C@@H]4C[C@H](O)[C@H]5C(C)(C)C(F)(F)CC[C@@]56C[C@@]46CC[C@]23C)O1 [Compound 2]	1660 ng·h/mL

###

assay: Plasma pharmacokinetics after single intravenous injection in rats; format: in vivo; settings: male, rat, rats ♂, intravenous 2 mg/kg, Mean ± SD

sample-smiles	display-unit	AUC0-t
CC(C)(O)[C@@H]1CC[C@](C)([C@H]2[C@@H](O)C[C@@]3(C)[C@@H]4C[C@H](O)[C@H]5C(C)(C)C(F)(F)CC[C@@]56C[C@@]46CC[C@]23C)O1	ng·h/mL	1060

###

assay: Solubility test in water and FaSSIF; type: physicochemical; conditions: thermodynamic from solid; Water, 37° C., up to 24 hours; read-out: Solubility
Entries and their measured Solubility follow.
assay-readout: Solubility (µg/mL)

sample-smiles	display-unit	readout-number
CC(C)(O)[C@@H]1CC[C@](C)([C@H]2[C@@H](O)C[C@@]3(C)[C@@H]4C[C@H](O)[C@H]5C(C)(C)C(F)(F)CC[C@@]56C[C@@]46CC[C@]23C)O1	µg/mL	2
CC(C)(O)[C@@H]1CC[C@@](C)([C@H]2[C@@H](O)C[C@@]3(C)[C@@H]4C[C@H](OP(=O)(O)O)[C@H]5C(C)(C)C(F)(F)CC[C@@]56C[C@@]46CC[C@]23C)O1	µg/mL	790
CC(C)(O)[C@@H]1CC[C@@](C)([C@H]2[C@@H](O)C[C@@]3(C)[C@@H]4C[C@H](OC(=O)COCCO)[C@H]5C(C)(C)C(F)(F)CC[C@@]56C[C@@]46CC[C@]23C)O1	µg/mL	550
CC(C)(O)[C@@H]1CC[C@@](C)([C@H]2[C@@H](O)C[C@@]3(C)[C@@H]4C[C@H](OC(=O)COCCOCCO)[C@H]5C(C)(C)C(F)(F)CC[C@@]56C[C@@]46CC[C@]23C)O1	µg/mL	680

###

assay: Plasma pharmacokinetics after single intravenous injection in rats; format: in vivo; conditions: male, rat, rats ♂, intravenous 2 mg/kg, Mean ± SD, read-out: MRT0-∞

compound	MRT inf (h)
CC(C)(O)[C@@H]1CC[C@](C)([C@H]2[C@@H](O)C[C@@]3(C)[C@@H]4C[C@H](O)[C@H]5C(C)(C)C(F)(F)CC[C@@]56C[C@@]46CC[C@]23C)O1 [Compound 2]	1.07
